# Tested on: Saccharomyces cerevisiae
# EXPERIMENT: protein stability index of tFT-peptide fusion (C-terminal peptide) (PSI (0-1 scale)); higher = more stable (slower turnover);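 note: PSI is a weighted mean of sequencing reads over stability bins, variants kept only with over 10 reads, mCherry proximal and sfGFP distal, peptide attached via GGGS linker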
# MEASUREMENT_SETUP: genetic background: cdc34-1; temperature: 37 C
protein stability index for assorted sequences

- SEQ_STRING: "RWALPALWAYAA"
  protein stability index: 0.493
- SEQ_STRING: "VFDFVFHLRFVV"
  protein stability index: 0.336
- SEQ_STRING: "LLVCLGYFLFLG"
  protein stability index: 0.37
- SEQ_STRING: "LPLLLFYLPIIW"
  protein stability index: 0.465

query: Name the recorded protein stability index for `RFVLVFLVSLII` .
result: 0.376

query: So what's the measured protein stability index for this one? `CTFFCICVFFLL`
result: 0.349

query: Fill in: protein stability index of `GAVRGWGWVSFV` is ___
result: 0.622

query: I would be grateful if you could share the reported protein stability index for `CLFLNCRFYMFL` .
result: 0.951

query: What does the data say about its protein stability index? Entry: `PWFCYVQLVVPV`
result: 0.226

query: Returns the measured protein stability index for the input sequence. Input: `TLLSSIFLCLVL`
result: 0.575

* * *

# Test system: Saccharomyces cerevisiae
# EXPERIMENT: protein stability index of tFT-peptide fusion (C-terminal peptide) (PSI (0-1 scale)); higher = more stable (slower turnover)
# MEASUREMENT_SETUP: genetic background: wild type; temperature: 30 C
Listed here are sequences together with their documented protein stability index.
Simply state the number, no unit and no words.

- SEQ_STRING: "TSLPPSPPPSPT"
  RECORDED_VALUE: 0.392
- SEQ_STRING: "FFVISVVLCLLV"
  RECORDED_VALUE: 0.344

query: Can you look up protein stability index on Saccharomyces cerevisiae for `RLVGVRWEVCNL` ?
result: 0.772

query: Report protein stability index for `VCILLVAWCLMG` tested on Saccharomyces cerevisiae.
result: 0.124

query: Recall the recorded protein stability index for `RKQLSCIMIWCK` with Saccharomyces cerevisiae and state it.
result: 0.204

query: Any idea what protein stability index came out for `LRNVPCLVFFWV` on Saccharomyces cerevisiae?
result: 0.384

query: I'm curious: which protein stability index was measured for `NLTAIIYTLVVD` tested on Saccharomyces cerevisiae?
result: 0.225

* * *

# System: Saccharomyces cerevisiae
# EXPERIMENT: protein stability index of tFT-peptide fusion (C-terminal peptide) (PSI (0-1 scale)); higher = more stable (slower turnover)
# MEASUREMENT_SETUP: genetic background: wild type; temperature: 30 C
Reported protein stability index is given for each of the following sequences.
Answer field: number only, no words.

- SEQ_STRING: "LPPPPPPPPLLP"
  RECORDED_VALUE: 0.696
- SEQ_STRING: "GGGGVVGGLLCS"
  RECORDED_VALUE: 0.761
- SEQ_STRING: "DVLSLFCKFFGV"
  RECORDED_VALUE: 0.661
- SEQ_STRING: "PLPLPSTALPPS"
  RECORDED_VALUE: 0.632
- SEQ_STRING: "SMARVWLVWRWK"
  RECORDED_VALUE: 0.673

query: I'd like to know its protein stability index. The sequence in question is `PRPGSRCPIKGR`
result: 0.692

query: Reported protein stability index, sequence `KGRRQPSSESVM` : ____
result: 0.711

query: I would be grateful if you could share the reported protein stability index for `GPGAGRRKSAER` .
result: 0.616

query: # lookup: protein stability index of `VALSFYVLRRVP`
result: 0.594

query: Looking for the measured protein stability index of `TKRQTIEIIKKK` , can you help?
result: 0.809
